# System: L1210
# assay.info: In vitro cytotoxicity against L1210 murine leukemia cells after 48 hr of continuous exposure
# Type: functional, cell-based
# condition.parameters: Mus musculus, L1210, 48 h
endpoint.label: IC50

Examples with answers:
chemical.structure: C=C(F)C(=O)Nc1cc(C(=O)Nc2cc(C(=O)Nc3cc(C(=O)Nc4cc(C(=O)NCCC(=N)N)n(C)c4)n(C)c3)n(C)c2)n(C)c1
IC50: > 800 nM
//
chemical.structure: C=C(F)C(=O)Nc1cc(C(=O)Nc2ccccc2)n(C)c1
IC50: > 5000 nM
//
chemical.structure: C=C(Br)C(=O)Nc1ccc(C(=N)N)cc1
IC50: > 5000 nM
//
chemical.structure: C=C(Br)C(=O)Nc1cc(C(=O)Nc2cc(C(=O)NCCN=C(N)N)n(C)c2)n(C)c1
IC50: > 500 nM

Ask: // returns reported IC50 for input `C=C(Br)C(=O)Nc1cc(C(=O)NCCC(=N)N)n(C)c1`
Result: > 2500 nM

Reference source for all entries: ChEMBL document CHEMBL1135125
